Cited source: patent US4728650A

Test Name: Acute toxicity in mice, oral
Parameters: species or system ddK strain)
Experimental Conditions: mouse, in vivo, male ddK mice, 10 animals per group
Endpoint Name: LD50 (mg/kg)
Enter your answer as a number in mg/kg; do not include the unit.

input: Look up LD50: COc1c(C)c(C)c2c(c1C)CCC(C)(CC(=O)NC(=N)N)O2 (stereo not shown)
output: 3560

====

I'd appreciate it if you could supply Ulcer index (mean ± S.E.) values for the items below.
Test Name: Hydrochloric acid-ethanol-induced ulcer in rats
Type: in vivo, Wistar rats (male)
Experimental Conditions: Table 5; 25 mg/kg p.o.; control 11.09 ± 1.49
API: value field is a number in mm; no unit string.

input: Reported Ulcer index (mean ± S.E.), compound CCOc1c(C)c(C)c2c(c1C)CCC(C)(CC(=O)NC(=N)N)O2 (stereo not shown) : ____
output: 0.50

input: Also COc1c(C)c(C)c2c(c1C)CCC(C)(CCC(=O)NC(=N)N)O2 (stereo not shown) , if possible.
output: 0.00

input: Record: CNC(=S)NCCC1(C)CCc2c(C)c(OC)c(C)c(C)c2O1 (stereo not shown)
output: 5.84

input: Follow-up entry: CC(C)=CCOc1c(C)c(C)c2c(c1C)CCC(C)(CC(=O)NC(=N)N)O2 (stereo not shown)
output: 0.14
